Each entry below carries its measured log10(AC50), system: UniProtKB P11712.
Sequence (P11712 whole entry): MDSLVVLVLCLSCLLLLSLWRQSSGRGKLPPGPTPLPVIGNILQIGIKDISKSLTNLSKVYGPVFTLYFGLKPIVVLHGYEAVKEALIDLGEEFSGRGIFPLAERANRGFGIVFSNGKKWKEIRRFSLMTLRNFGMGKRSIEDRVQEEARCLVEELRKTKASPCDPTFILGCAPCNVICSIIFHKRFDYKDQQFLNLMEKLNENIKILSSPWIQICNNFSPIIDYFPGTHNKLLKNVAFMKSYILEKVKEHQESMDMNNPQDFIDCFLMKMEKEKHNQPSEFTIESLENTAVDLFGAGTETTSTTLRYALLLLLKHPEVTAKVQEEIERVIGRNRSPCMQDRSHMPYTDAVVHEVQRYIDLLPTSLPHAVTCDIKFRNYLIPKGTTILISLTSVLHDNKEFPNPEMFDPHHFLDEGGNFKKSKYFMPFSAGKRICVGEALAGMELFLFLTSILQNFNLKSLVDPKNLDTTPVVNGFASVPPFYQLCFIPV
Response schema: value (number) is log10 of AC50 in units of µM.

Here are 5 compounds together with their reported answers.
{"compound": "O=C(OCCCCCCOC(=O)c1ccccc1)c1ccccc1 [Hexane-1,6-diyl dibenzoate]", "study system": "UniProtKB P11712", "obs value": 1.03}
{"compound": "CCCCCCCCCCCC(=O)O.OCCN(CCO)CCO [Triethanolamine Laurate]", "study system": "UniProtKB P11712", "obs value": 2.06}
{"compound": "CCOC(=O)c1ccc(NC(=O)CN2CCCCC2)cc1 [Sulcaine]", "study system": "UniProtKB P11712", "obs value": 1.58}
{"compound": "C[C@]12CC[C@H]3[C@@H](CCC4=CC(=O)CC[C@@]43C)[C@@H]1CC[C@@H]2C(=O)O [Etienic acid]", "study system": "UniProtKB P11712", "obs value": 1.33}
{"compound": "CC(=O)[O-].CC(=O)[O-].CC(=O)[O-].[Cr+3] [Chromium(III) acetate]", "study system": "UniProtKB P11712", "obs value": 1.98}

Give measured log10(AC50) for every item shown.
1. CC(=O)O[C@@H]1C[C@H]2[C@@H]3CCc4cc(OC(=O)c5ccccc5)ccc4[C@H]3CC[C@]2(C)[C@H]1OC(C)=O [Estriol benzoate diacetate]
2. CCN(CC)c1ccc(C=O)c(O)c1 [4-(Diethylamino)salicylaldehyde]
3. O=C(OCCCCCOC(=O)c1ccccc1)c1ccccc1 [Pentane-1,5-diyl dibenzoate]
4. CCCCC/C(=C\c1ccccc1)CO [alpha-Amylcinnamyl alcohol]
5. Cl.Nc1c2ccccc2nc2ccccc12.O
6. O=C(Cc1ccccc1)OCc1ccccc1 [Benzyl phenylacetate]
7. O=C([O-])CCCOc1ccc(Cl)cc1Cl.[Na+] [2,4-DB-sodium]
8. N.N.O=C([O-])C1(C(=O)[O-])CCC1.[Pt+2] [Carboplatin]

Output:
[1.36, 1.36, 1.02, 1.56, 1.46, 1.55, 1.78, 0.98]

Give measured log10(AC50) for every item shown.
1. O=S(=O)(Oc1ccc(Cl)cc1)c1ccccc1 [Fenson]
2. C1CC(COCC2CO2)CCC1COCC1CO1 (stereo not shown)
3. O=C(O)c1cc(Br)c(O)c(Br)c1 [3,5-Dibromo-4-hydroxybenzoic acid]

Output:
1: 1.54; 2: 1.75; 3: 1.84
